biological target: HIV-1 Env of isolate MGRM-A-001 (HIV-1); experiment: cell-based or functional assay
observed property: IC50 (µg/mL), pseudovirus neutralization

Use the examples below as a reference point.
[[record]]
binder = "PGT-127 (antibody, V domains shown) VH: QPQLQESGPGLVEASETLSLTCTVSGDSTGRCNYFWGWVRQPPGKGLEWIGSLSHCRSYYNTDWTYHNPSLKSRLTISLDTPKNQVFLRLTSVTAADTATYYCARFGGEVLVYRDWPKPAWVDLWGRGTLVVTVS VL: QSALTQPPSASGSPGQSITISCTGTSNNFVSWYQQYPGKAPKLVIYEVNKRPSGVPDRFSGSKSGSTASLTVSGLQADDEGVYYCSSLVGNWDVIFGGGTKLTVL"
reported_result = "> 50 µg/mL"

[[record]]
binder = "PGT-123 (antibody, V domains shown) VH: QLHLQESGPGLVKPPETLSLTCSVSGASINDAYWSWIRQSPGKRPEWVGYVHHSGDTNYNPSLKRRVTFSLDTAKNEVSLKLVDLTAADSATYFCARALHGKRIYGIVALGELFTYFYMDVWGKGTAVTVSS VL: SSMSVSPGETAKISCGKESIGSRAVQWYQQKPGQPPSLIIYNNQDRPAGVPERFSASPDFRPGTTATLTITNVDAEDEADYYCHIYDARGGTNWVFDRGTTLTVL"
reported_result = "> 50 µg/mL"

[[record]]
binder = "PGT-125 (antibody, V domains shown) VH: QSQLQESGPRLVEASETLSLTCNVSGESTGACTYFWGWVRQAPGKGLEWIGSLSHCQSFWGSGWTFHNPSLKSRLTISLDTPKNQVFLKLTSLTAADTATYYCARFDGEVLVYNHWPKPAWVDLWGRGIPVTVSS VL: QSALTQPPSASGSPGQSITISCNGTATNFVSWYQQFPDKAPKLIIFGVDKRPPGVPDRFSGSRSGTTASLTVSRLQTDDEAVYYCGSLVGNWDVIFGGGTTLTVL"
reported_result = "12.4 µg/mL"


With those in mind, consider the next binder.
Data request: Which value of IC50 (µg/mL), pseudovirus neutralization has been reported for PGT-126 (antibody, V domains shown) VH: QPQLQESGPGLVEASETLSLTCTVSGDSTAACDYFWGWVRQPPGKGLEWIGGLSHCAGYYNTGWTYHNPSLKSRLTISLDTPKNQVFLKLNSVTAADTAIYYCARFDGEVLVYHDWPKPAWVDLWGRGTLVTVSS VL: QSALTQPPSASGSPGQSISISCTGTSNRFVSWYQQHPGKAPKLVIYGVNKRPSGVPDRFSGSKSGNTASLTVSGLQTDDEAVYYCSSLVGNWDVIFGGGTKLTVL in the records?
Data returned: > 50 µg/mL

Source listed as patent US20200024330A1.
